Molecular target: unphosphorylated VEGF-R2Δ50 (FLVK) (Homo sapiens, UniProt P35968, DEL940-989/E990V)
Construct: VEGF-R2Δ50 contains residues 806–939 and 990–1171; made in house; host or cells: baculovirus/insect cell system
Sequence (P35968 with tags, fused parts or gaps DEL940-989/E990V limits assumed): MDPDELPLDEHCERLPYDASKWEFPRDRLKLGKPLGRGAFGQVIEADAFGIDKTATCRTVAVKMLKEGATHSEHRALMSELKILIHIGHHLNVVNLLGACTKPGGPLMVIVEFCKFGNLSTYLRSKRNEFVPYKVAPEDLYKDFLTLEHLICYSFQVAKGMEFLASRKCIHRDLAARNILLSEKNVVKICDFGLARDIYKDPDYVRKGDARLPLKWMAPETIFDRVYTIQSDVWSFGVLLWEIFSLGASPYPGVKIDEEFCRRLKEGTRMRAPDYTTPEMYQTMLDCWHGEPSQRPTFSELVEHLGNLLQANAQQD
Experiment: VEGF-R2 coupled spectrophotometric assay, unphosphorylated VEGF-R2Δ50 (FLVK)
Type: biochemical
Details: 50 nM compound; unphosphorylated VEGF-R2Δ50; read-out: FLVK (% inh @ 50 nM)
metric: inhibition at 0.05 µM (%)
One number for each entry, in %.

>  <compound structure string>
CNC(=O)c1c(C)n(C)c2cc(Oc3ccnc4cc(C(=O)N5CC[C@@H](O)C5)sc34)ccc12

>  <measure unit>
%

>  <inhibition at 0.05 µM>
75

$$$$
>  <compound structure string>
CNC(=O)c1c(C)oc2cc(Oc3ccnc4cc(-c5nc(CO)cs5)sc34)ccc12

>  <measure unit>
%

>  <inhibition at 0.05 µM>
100

$$$$
>  <compound structure string>
Cc1oc2cc(Oc3ccnc4cc(-c5nccn5C)sc34)ccc2c1C(=O)NCC(C)C

>  <measure unit>
%

>  <inhibition at 0.05 µM>
94

$$$$
>  <compound structure string>
CNC(=O)c1c(C)n(C)c2cc(Oc3ccnc4cc(-c5cncnc5)sc34)ccc12

>  <measure unit>
%

>  <inhibition at 0.05 µM>
12

$$$$
>  <compound structure string>
CNC(=O)c1c(C)sc2cc(Oc3ccnc4cc(C(=O)N5C[C@@H](O)[C@@H](O)C5)sc34)ccc12

>  <measure unit>
%

>  <inhibition at 0.05 µM>
95

$$$$
>  <compound structure string>
CCc1c(C(=O)NC)c2ccc(Oc3ccnc4cc(C(=O)N5CC[C@@H](O)C5)sc34)cc2n1C

>  <measure unit>
%

>  <inhibition at 0.05 µM>
48

$$$$

Please supply inhibition at 0.05 µM for each of the following items, keeping them in order.
1. Cc1sc2cc(Oc3ccnc4cc(C(=O)N5CC[C@@H](O)C5)sc34)ccc2c1C(=O)NCC1CC1
2. CNC(=O)c1c(C(F)(F)F)n(C)c2cc(Oc3ccnc4cc(-c5nccn5C)sc34)ccc12
3. CNC(=O)c1c(C)n(C)c2cc(Oc3ccnc4cc(-c5nccn5C)sc34)ccc12
4. CNC(=O)c1c(C)sc2cc(Oc3ccnc4cc(C(=O)N5CCC[C@H]5CO)sc34)ccc12

Result:
1. 96
2. 36
3. 77
4. 59
